target: FIR1+2 WT (FIR RRM1+2) (human, UniProt Q9UHX1-2 101-299, R106G;C112S;C238A); assay: fluorescence anisotropy
Sequence (Q9UHX1 118-316 R123G/C129S/C255A): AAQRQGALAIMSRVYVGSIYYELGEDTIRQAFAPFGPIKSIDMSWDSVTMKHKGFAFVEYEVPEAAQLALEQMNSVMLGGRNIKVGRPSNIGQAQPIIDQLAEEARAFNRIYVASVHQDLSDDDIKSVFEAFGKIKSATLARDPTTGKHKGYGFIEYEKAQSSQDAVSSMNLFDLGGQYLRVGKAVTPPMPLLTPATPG
ENDPOINT NAME: Kd (nM)
Supply the numeric figure in nM, leaving out any unit text.

Q: Suppose we examine the binder CCTCGGGATTTTTTATTTTGTGTTATT (ssDNA) [H27 (FUSE), fluorescein] ; what Kd value has been reported?
A: 2300

Just for reference, paper PMC2206118 is where these values come from.
